- Assay Target: T1, Lip-PDZ_(DVL2) (human, UniProt O14641 265-361)
- T1 construct: DVL2 (Dishevelled-2), human, PDZ domain, amino acids 265-361; also called His6x-Lip-PDZ; source: E. coli BL21-CodonPlus(DE3)-RIL, purified (Ni-NTA, SEC); not shown: Lipoyl (Lip), N-terminal, kept
- T1 sequence (looked up): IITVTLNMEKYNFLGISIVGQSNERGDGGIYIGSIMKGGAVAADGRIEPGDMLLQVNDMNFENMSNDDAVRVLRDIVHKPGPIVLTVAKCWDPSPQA
- Experiment Summary: ITC; 40 μM Lip-PDZ_(DVL2) in the cell, 1.00 mM Lip-PBM_(Daple) or 1.33 mM Lip-PBM_(FZD4) in the syringe; 25°C; 25 mM sodium phosphate pH 6.7, 150 mM NaCl; one set of binding sites; apparent KD
- Recorded Conditions: both partners purified
No end group written: not given here. *: point of attachment. Lip = lipoyl, O=C(CCCC[C@@H]1CCSS1)*
Observable: pKd
FYI, pKd means -log10 of a concentration in mol per litre.

Problem: What measured pKd goes with Lip-VWYEYGCV (peptide, UniProt Q9P219 2021-2028, looked up, Daple, C-terminal eight residues; the last residue is printed as Val2028, so 2021 is worked out; printed residues: Trp2022, Glu2024, Tyr2025, Gly2026, Cys2027, Val2028; source: E. coli BL21-CodonPlus(DE3)-RIL, purified (Ni-NTA, SEC); not shown: Lipoyl (Lip), N-terminal, kept) [Lip-PBM_(Daple) (C-terminal eight residues of Daple tagged with Lipoyl)] ?
Result: 5.04
